Reported values of Ki for individual entries
Molecular target: recombinant BRD4 BD2 (Homo sapiens, UniProt O60885)
Construct: for recombinant BRD4 BD1 and BRD4 BD2 proteins
Assay: Competitive fluorescence-polarization (FP) binding assay, BRD4 BD2
Conditions: FP competitive binding, BRD4 BD2; read-out: Binding affinities (FP) BRD4BD2 Ki
Experimental: Fluorescence Polarization (FP) competitive binding studies were carried out using a FAM labeled fluorescent probe (ZBA248 or BRD-1F) to determine binding affinities of representative Compounds of the Disclosure for recombinant BRD4 BD1 and BRD4 BD2 proteins. […] Kd values of ZBA248 were calculated by fitting the sigmoidal dose-dependent FP increases as a function of protein concentrations using Graphpad Prism 6.0 software (Graphpad Software, San Diego, Calif.). […]
quantityMeasured: Ki (nM)

> print(dat)
                            smilesstructure  quantitymeasured  valueoperator  numericreadout
1  COc1cc2c(cc1-c1c(C)noc1C)[nH]c1cncc(Nc3cc(C4CC4)nn3C)c12                Ki              =             1.2
2  COc1nc2c(cc1-c1c(C)noc1C)[nH]c1nc(C)nc(Nc3cc(C)nn3C(C)(C)C)c12                Ki              =             113
3  COc1cc2c(cc1-c1c(C)noc1C)[nH]c1nc(C)nc(Nc3cc(C4CC4)nn3CCN3CCOCC3)c12                Ki              =             2.6
4  COc1cc2c(cc1-c1c(C)noc1C)[nH]c1nc(C)nc(Nc3cc(C4CC4)nn3C3CCOCC3)c12                Ki              =             0.9
5  COc1cc2c(cc1-c1c(C)noc1C)[nH]c1ccnc(Nc3c4c(nn3C(C)C)CCC4)c12                Ki              =             4.6
6  COc1cc2c(cc1-c1c(C)noc1C)[nH]c1nc(CS(C)(=O)=O)nc(Nc3cc(C4CC4)nn3C)c12                Ki              <               1
7  COc1c(-c2c(C)noc2C)cc2[nH]c3nc(C)nc(N(C)c4cc(C5CC5)nn4C)c3c2c1F                Ki              =              10
8  CCn1nc(C2CC2)cc1Nc1nccc2[nH]c3cc(-c4c(C)noc4C)c(OC)cc3c12                Ki              =             2.1
9  COc1nc2c(cc1-c1c(C)noc1C)[nH]c1nc(C)nc(Nc3cccc(C)c3)c12                Ki              =            1140

====

Reported values of IC50 for individual entries
Target: recombinant BRD4 BD1 (Homo sapiens)
Construct: for recombinant BRD4 BD1 and BRD4 BD2 proteins
Assay: Competitive fluorescence-polarization (FP) binding assay, BRD4 BD1; also: probe 1.5 nM
Conditions: competitive FP assay; protein 10 nM, probe […]; read-out: IC50 (nM) BRD4 BD1
quantityMeasured: IC50

> print(dat)
                            smilesstructure                   experimentalsystem  quantitymeasured   result
1  COc1cc2c(cc1-c1c(C)noc1C)[nH]c1nc(C)nc(Nc3cccc4cnccc34)c12  recombinant BRD4 BD1 (Homo sapiens)              IC50    49 nM
2  CCc1nn(C)c(Nc2nc(C)nc3[nH]c4cc(-c5c(C)noc5C)c(OC)cc4c23)c1C  recombinant BRD4 BD1 (Homo sapiens)              IC50  14.3 nM
3  COc1cc2c(cc1-c1c(C)noc1C)[nH]c1nc(C)nc(Nc3cccc4c3CCO4)c12  recombinant BRD4 BD1 (Homo sapiens)              IC50    25 nM
4  COc1cc2c(cc1-c1c(C)noc1C)[nH]c1nc(C)nc(Sc3nnc(C)n3C(C)C)c12  recombinant BRD4 BD1 (Homo sapiens)              IC50   540 nM
5  CCn1nc(C2CC2)c(F)c1Nc1nc(C)nc2[nH]c3cc(-c4c(C)noc4C)c(OC)cc3c12  recombinant BRD4 BD1 (Homo sapiens)              IC50    12 nM
6  COCc1nc(Nc2cc(C3CC3)nn2C)c2c(n1)[nH]c1cc(-c3c(C)noc3C)c(OC)cc12  recombinant BRD4 BD1 (Homo sapiens)              IC50   2.9 nM
7  COc1cc2c(cc1-c1c(C)noc1C)[nH]c1nc(C)nc(Nc3c(-c4ccccc4)nn(C(C)C)c3C)c12  recombinant BRD4 BD1 (Homo sapiens)              IC50  52.9 nM

====

Reported values of IC50 for individual entries
Test system: MOLM-13
Experiment: Cell growth inhibition, MOLM-13 leukemia cells (CellTiter-Glo)
Format: cell-based
Conditions: Homo sapiens, MOLM-13, 96 h; 4 days; read-out: IC50 (nM) MOLM-13 Cell Line (CellTiter-Glo assay)
quantityMeasured: IC50 (nM)

> print(dat)
                            smilesstructure  quantitymeasured  numericreadout
1  COc1cc2c(cc1-c1c(C)noc1C)[nH]c1nc(C)nc(Nc3c(C)nn(C)c3C)c12              IC50            38.9
2  COc1cc2c(cc1-c1c(C)noc1C)[nH]c1nc(C)nc(Nc3cc(C4CC4)nn3C(C)C)c12              IC50             7.2
3  COc1cc2c(cc1-c1c(C)noc1C)[nH]c1nc(C)nc(Nc3nn(C)cc3C)c12              IC50             242
4  COc1cc2c(cc1-c1c(C)noc1C)[nH]c1nc(C)nc(Nc3c(C)c(C)nn3C3CC3)c12              IC50             3.2
5  COc1cc2c(cc1-c1c(C)noc1C)[nH]c1nc(C)nc(Nc3c(-c4ccccc4)noc3C)c12              IC50             171
6  COc1cc2c(cc1-c1c(C)noc1C)[nH]c1nc(C)nc(Nc3csc4ncccc34)c12              IC50              39
7  COc1cc2c(cc1-c1c(C)noc1C)[nH]c1nc(C)nc(Nc3cccc(N(C)C)c3)c12              IC50              71

====

System: MDA-MB-436
Assay: Cell growth inhibition, MDA-MB-436 breast cancer cells (WST-8)
Type: cell-based
Conditions: Homo sapiens, MDA-MB-436, 96 h; 4 days; read-out: IC50 (nM) MDA-MB-436 Cell Line (WST assay)
quantityMeasured: IC50 (nM)

> print(dat)
                             smilesstructure  experimentalsystem  unitofmeasurement  numericreadout
 1  COc1cc2c(cc1-c1c(C)noc1C)[nH]c1nc(C)nc(Nc3ccc4c(c3)N(C)CC4)c12          MDA-MB-436                 nM             238
 2  COc1cc2c(cc1-c1c(C)noc1C)[nH]c1nc(C)nc(Nc3cc(C)nn3C3CCC3)c12          MDA-MB-436                 nM              26
 3  COc1cc2c(cc1-c1c(C)noc1C)[nH]c1nc(C)nc(Nc3c4c(nn3C)CCCC4)c12          MDA-MB-436                 nM            17.5
 4  COc1cc2c(cc1-c1c(C)noc1C)[nH]c1nc(C)nc(Nc3cc(F)cc(Cl)c3)c12          MDA-MB-436                 nM             315
 5  COc1cc2c(cc1-c1c(C)noc1C)[nH]c1nc(C)nc(Nc3c(C)cnn3C)c12          MDA-MB-436                 nM             156
 6  CCc1nn(C)cc1Nc1nc(C)nc2[nH]c3cc(-c4c(C)noc4C)c(OC)cc3c12          MDA-MB-436                 nM              98
 7  COc1cc2c(cc1-c1c(C)noc1C)[nH]c1nc(C)nc(Nc3c(C)nn(C(C)C)c3C)c12          MDA-MB-436                 nM             236
 8  COc1cc2c(cc1-c1c(C)noc1C)[nH]c1nc(C)nc(Nc3nn(C)c4ccncc34)c12          MDA-MB-436                 nM             398
 9  COc1cc2c(cc1-c1c(C)noc1C)[nH]c1nc(C)nc(Nc3cn(C)nc3C(F)(F)F)c12          MDA-MB-436                 nM             330
10  COc1cc2c(cc1-c1c(C)noc1C)[nH]c1ccnc(Nc3cc(C4CC4)nn3C)c12          MDA-MB-436                 nM              26
11  COc1cc2c(cc1-c1c(C)noc1C)[nH]c1nc(C)nc(Nc3cc(C(C)(C)C)n[nH]3)c12          MDA-MB-436                 nM             140
12  COc1cc2c(cc1-c1c(C)noc1C)[nH]c1nc(C)nc(Nc3cccc4c3CCN4)c12          MDA-MB-436                 nM              79
13  COc1cc2c(cc1-c1c(C)noc1C)[nH]c1nc(C)nc(Nc3c(C)c(C)nn3C(C)(C)C)c12          MDA-MB-436                 nM              71
14  COc1cc2c(cc1-c1c(C)noc1C)[nH]c1nc(C)nc(Nc3c4c(nn3C3CC3)CCC4)c12          MDA-MB-436                 nM            20.4
15  COc1cc2c(cc1-c1c(C)noc1C)[nH]c1nc(C)nc(Nc3cc(C(C)(C)C)ns3)c12          MDA-MB-436                 nM           47900
16  COc1cc2c(cc1-c1c(C)noc1C)[nH]c1nc(C)nc(Nc3cnn4c3CCC4)c12          MDA-MB-436                 nM             128
